Entry source: the supplement of paper PMC8728848

tgt: Gal3S(b1-4)Glc
assay-comment: glycan array binding signal (z-score within array); higher = stronger binding
conditions: glycan notation: IUPAC condensed, linker removed
This is one part of a sample in which the strongest signals are shown more often than they occur.
attribute-measured: glycan array binding signal (z-score)
Hey, just send me the number, nothing else.

Summary for this binder, Clone646PsrP (Streptococcus pneumoniae) (protein) MDHHHHHHHHASENLYFQGAPAINASLNIAKSETKVYTGEGVDSVYRVPIYYKLKVTNDGSKLTFTYTVTYVNPKTNDLGNISSMRPGYSIYNSGTSTQTMLTLGSDLGKPSGVKNYITDKNGRQVLSYNTSTMTTQGSGYTWGNGAQMNGFFAKKGYGLTSSWTVPITGTDTSFTFTPYAARTDRIGINYFNGGGKVVESSTTSQSLSQSKSLSVSAS : glycan array binding signal (z-score) is 1.81

Summary for this binder, SBD (Rhizopus oryzae), P07683 (protein) ASIPSSASVQLDSYNYDGSTFSGKIYVKNIAYSKKVTVVYADGSDNWNNNGNIIAASFSGPISGSNYEYWTFSASVKGIKEFYIKYEVSGKTYYDNNNSANYQVS : glycan array binding signal (z-score) is 0.207

Summary for this binder, Mnn9-2N3 (Aspergillus fumigatus) (protein) MAVARRMRRTNPITLLLAAILAIGFFIFVLSPSTTSASPVKAGSASSSSTSQQRREDNAAENPLSPPTKPFFKSQPVRHDGQQAPPPVVQYNLNQLSSTSTSAANGERILILTPMARFVPEYWDNVVKLTYPHELISIGFIIPKNKEGNAALAALEAAIAKTQSGPIDKRFASISILRQDFEPPLQSQDEKERHKISNQKARRESMSRARNSLLFTTLGPATAWVLWLDADIVETPPTLIQDLTAHDHPVLVPNCYQRYYNSEKKKMDVRPYDYNSWIDSSTAQSMAAEMGPDEILLEGYAEMPTYRTLMAHLADTANPNPKKVIELDGVGGTALMVKAEVHRDGAMFPAFPFYHLVETEGFAKMAKRLGYSVYGLPDYFVSRNFFFFFFFFFFG : glycan array binding signal (z-score) is 3.44

Summary for this binder, Pwp4 (Candida glabrata) (protein) MGSSHHHHHHSSGLVPRGSHMASVGNPITVSNVCSFPKNWHRTAGFRALTARLGIGIQSDSYKELLNYPGTFQLTTQQSSTTKPNFQISGLVGNIYGLTIVPSYLLVELTGYFVPPVSGEYTFSLEGSDDAAIIFIANPSTFKCGHVEDWPTAYDNDVTVTESIHATRTIYMIEGVAYPIRIAYYNGLSLGKLQASFTDPEGVKRVDWNGYIWRYDSCDTCSYV : glycan array binding signal (z-score) is -0.366

Kindly review the next binder as well.
Summary for this binder, FimD (Bordetella pertussis) (protein) MPARVISFCGAALAVWAGLAVQPAMAVDPPVDCGRALGLHFWSSASLISDQTPDGTLIGKPVVGRSLLSKSCKVPDDIKEDLSDNHDGEPVDIVLELGSNYKIRPQSYGHPGIVVDLPFGSTEETGIAIYIDFGSSPMQKVGERQWLYPQKGEVLFDVLTINGDNAEVRYQAIKVGPLKRPRKLVLSQFPNLFTYKWVFMRGTSQERVLAQGTIDTDVATSTIDLKTCRYTSQTVSLPIIQRSALTGVGTTLGMTDFQMPFWCYGWPKVSVYMSATKTQTGVDGVALPATGQAAGMASGVGVQLINGKTQQPVKLGLQGKIALPEAQQTESATFSLPMKAQYYQTSTSTSAGKLSVTYAVTLNYD : glycan array binding signal (z-score) is -0.263
